B1: 5KPH (parent)
chain: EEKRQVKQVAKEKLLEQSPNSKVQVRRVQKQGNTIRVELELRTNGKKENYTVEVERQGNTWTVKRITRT

variants of: B1; assay: folding stability dG (cDNA display proteolysis); higher = more stable; conditions: PBS, room temperature
For each of the variants below, state its folding stability dG.
The reply should be a number in kcal/mol, with the unit left off.

Tell me the measured folding stability dG of K22G , please. 3.2

Tell me the measured folding stability dG of N33R , please. 3.74

Tell me the measured folding stability dG of K46I , please. 4.03

Tell me the measured folding stability dG of W61N , please. 1.83

Tell me the measured folding stability dG of R56H , please. 3.38

Tell me the measured folding stability dG of R26D , please. 2.16

Tell me the measured folding stability dG of V6S , please. 3.37

Tell me the measured folding stability dG of T43H , please. 3.98

Tell me the measured folding stability dG of R26F , please. 3.7

Tell me the measured folding stability dG of E38M , please. 4.43

Tell me the measured folding stability dG of V52G , please. 0.851

Tell me the measured folding stability dG of K64N , please. 3.48

Tell me the measured folding stability dG of R36D , please. 2.45

Tell me the measured folding stability dG of T51L , please. 3.99

Tell me the measured folding stability dG of P19N , please. 2.57

Tell me the measured folding stability dG of K3M , please. 4.84
